Molecular target: recombinant human 17β-HSD1 (Homo sapiens, UniProt P14061)
Construct: made in house; host or cells: Sd9 (Sf9) insect cells, baculovirus (Bac to Bac Expression System)
Sequence (P14061 1-328): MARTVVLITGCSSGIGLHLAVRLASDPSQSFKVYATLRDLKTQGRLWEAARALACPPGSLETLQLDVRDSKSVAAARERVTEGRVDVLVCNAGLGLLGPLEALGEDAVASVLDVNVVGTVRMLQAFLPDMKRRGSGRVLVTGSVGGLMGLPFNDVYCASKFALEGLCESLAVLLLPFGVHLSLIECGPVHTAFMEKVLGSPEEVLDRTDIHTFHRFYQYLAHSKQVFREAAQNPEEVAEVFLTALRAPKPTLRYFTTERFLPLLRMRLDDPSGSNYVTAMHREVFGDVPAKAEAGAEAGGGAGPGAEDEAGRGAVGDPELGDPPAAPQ
Experiment: Inhibition of recombinant human 17β-HSD1 (estrone to estradiol conversion, HPLC/radioactivity)
Type: biochemical
Conditions: compound 100 nM; 30 nM estrone, 1 mM NADPH, 30 min RT
Assign inhibition at 0.1 µM to each entry below.
Please give a number only; it is taken to be in %.

Given item CC(C)(C)c1cc(NC(=O)CC[C@@H]2c3c[nH]nc3[C@@]3(C)CCC4c5cccc(F)c5CCC4C23)no1 (stereo partly shown) , the value recorded as its inhibition at 0.1 µM is 93

Given item C[C@]12CCC3c4cccc(F)c4CCC3C1[C@H](CCC(=O)N1CCCC1)c1c[nH]nc12 (stereo partly shown) , the value recorded as its inhibition at 0.1 µM is 94

Given item C[C@]12CCC3c4ccccc4CCC3C1[C@H](CCC(=O)Nc1cccnn1)c1c[nH]nc12 (stereo partly shown) , the value recorded as its inhibition at 0.1 µM is 66

Given item CN(C)C(=O)c1ccc(NC(=O)CC[C@@H]2c3c[nH]nc3[C@@]3(C)CCC4c5cccc(F)c5CCC4C23)nc1 (stereo partly shown) , the value recorded as its inhibition at 0.1 µM is 95

Given item C[C@]12CCC3c4ccccc4CCC3C1[C@H](CCC(=O)Nc1ccccn1)c1c[nH]nc12 (stereo partly shown) , the value recorded as its inhibition at 0.1 µM is 89

Given item Cc1cc(NC(=O)CC[C@@H]2c3c[nH]nc3[C@@]3(C)CCC4c5ccccc5CCC4C23)no1 (stereo partly shown) , the value recorded as its inhibition at 0.1 µM is 80

Given item Cc1nnc(NC(=O)CC[C@@H]2c3c[nH]nc3[C@@]3(C)CCC4c5cccc(F)c5CCC4C23)o1 (stereo partly shown) , the value recorded as its inhibition at 0.1 µM is 74

====

Molecular target: recombinant human 17β-HSD2 (Homo sapiens)
Construct: made in house; host or cells: Sd9 (Sf9) insect cells, baculovirus (Bac to Bac Expression System)
Sequence (P37059 whole entry): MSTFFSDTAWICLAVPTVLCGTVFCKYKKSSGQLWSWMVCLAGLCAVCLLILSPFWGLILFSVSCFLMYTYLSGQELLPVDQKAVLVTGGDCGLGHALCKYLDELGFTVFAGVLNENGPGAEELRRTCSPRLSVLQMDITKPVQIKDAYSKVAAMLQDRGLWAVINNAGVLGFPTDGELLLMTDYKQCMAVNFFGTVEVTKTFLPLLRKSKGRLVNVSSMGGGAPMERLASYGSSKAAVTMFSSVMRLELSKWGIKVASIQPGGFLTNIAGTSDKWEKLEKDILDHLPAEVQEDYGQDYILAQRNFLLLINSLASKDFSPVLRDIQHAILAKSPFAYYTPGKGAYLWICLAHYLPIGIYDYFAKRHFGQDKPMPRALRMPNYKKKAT
Experiment: Inhibition of recombinant human 17β-HSD2 (estradiol to estrone conversion, HPLC/radioactivity)
Type: biochemical
Conditions: compound 1 μM; 50 nM estradiol, 1 mM NADH, 30 min RT
readout.label: inhibition at 1 µM (%)
Please give a number only; it is taken to be in %.

Given item CCN(CC)C(=O)CC[C@@H]1c2c[nH]nc2[C@@]2(C)CCC3c4cccc(F)c4CCC3C12 (stereo partly shown) , the value recorded as its inhibition at 1 µM is 6

Given item Cc1ccnc(NC(=O)CC[C@@H]2c3c[nH]nc3[C@@]3(C)CCC4c5ccc(F)cc5CCC4C23)c1 (stereo partly shown) , the value recorded as its inhibition at 1 µM is 4

Given item C[C@]12CCC3c4ccccc4CCC3C1[C@H](CCC(=O)Nc1ccc(F)cn1)c1c[nH]nc12 (stereo partly shown) , the value recorded as its inhibition at 1 µM is 3

Given item C[C@]12CCC3c4ccccc4CCC3C1[C@H](CCC(=O)N1CCOCC1)c1c[nH]nc12 (stereo partly shown) , the value recorded as its inhibition at 1 µM is 7
